Test system: CAKI-1 renal
Assay Summary: NCI-60 one-dose screen, 48 h (100 = growth as untreated, 0 = no growth, -100 = all killed)
Condition Details: 10 µM unless noted
About 83,000 compounds went through this panel and 20% of them were active in at least one assay; those are over-represented in the sample as a whole.
Listing of recorded growth by entry.
The reply should be a number in %, with the unit left off.

{"columns": ["Compound", "Reported Endpoint", "Reported Measurement"],
 "data": [
  ["O=C(NCc1ccc2c(c1)OCO2)NCC1CCCC(CNC(=O)NCc2ccc3c(c2)OCO3)C1 (stereo not drawn)", "growth", 89.6],
  ["CC1(C)CC2=C3C=C[C@@H]4[C@@]5(C)CC[C@H](O)C(C)(C)[C@@H]5CC[C@@]4(C)[C@]3(C)CC[C@@]2(C(=O)O)CC1=O", "growth", 28.2],
  ["COc1ccc(C2CC(c3ccc(Nc4nc(Nc5ccc(F)cc5)nc(Nc5ccc(F)cc5)n4)cc3)=NN2C(C)=O)cc1 (stereo not drawn)", "growth", 90.6],
  ["Cc1[nH]c(C(=O)Nc2ccc(C(N)=O)cc2NC(C)C)c(Cl)c1Cl", "growth", 94.1],
  ["Cc1nc2sc(C(=O)Nc3ccc(Cl)cc3)c(N)c2cc1C(O)c1ccccc1 (stereo not drawn)", "growth", 47.5],
  ["CCN(C(=O)N1CCN(c2cc3c(cc2F)c(=O)c(C(=O)O)cn3C2CC2)CC1)c1nc(-c2ccc(C)cc2)cs1", "growth", 7.79]
]}

## Task Need growth, item NC(CSC(c1ccccc1)(c1ccccc1)c1ccc2c(c1)OCO2)C(=O)O (stereo not drawn)
## Result 37

## Task Need growth, item COc1cccc(C(=O)OCC(O)C(=O)NC23CC4CC(CC(C4)C2)C3)c1 (stereo not drawn)
## Result 99.8

## Task Need growth, item CC1(C)C2CC=C(/C=N/NC(=O)C3CCC(=O)N3)C1C2 (stereo not drawn)
## Result 97.4

## Task Need growth, item CN(C)c1ccc(-c2cc(-c3ccc(Nc4nc(Nc5ccc(Cl)cc5)nc(Nc5ccc(Cl)cc5)n4)cc3)nc(N)c2C#N)cc1
## Result 82.3

## Task Need growth, item CN1CCN(Cc2cc(NC(=O)c3cccc(C#Cc4cccc5[nH]nc(N)c45)c3)cc(C(F)(F)F)c2)CC1
## Result 70.8

----------
Test system: U251 CNS
Assay Summary: NCI-60 one-dose screen, 48 h (100 = growth as untreated, 0 = no growth, -100 = all killed)
Condition Details: 10 µM unless noted
The panel holds about 83,000 compounds, 20% with a hit somewhere; the sample as a whole holds those more often.
Listing of recorded growth by entry.
The reply should be a number in %, with the unit left off.

{"columns": ["Molecule", "Assayed System", "Reported Endpoint", "Reported Measurement"],
 "data": [
  ["COc1ccc(C(c2cc(OC)c(OC)c(OC)c2)N2CCCC2)cc1 (stereo not given)", "U251 CNS", "growth", 77.8],
  ["CNC(=O)c1c(NC(=O)c2ccc(C(C)(C)C)cc2)sc2c(CN(C)C)c(O)ccc12", "U251 CNS", "growth", -29.9],
  ["COc1cc(-c2nc3occn3c2-c2ccnc(NCCCNS(=O)(=O)c3ccccc3)n2)ccc1F", "U251 CNS", "growth", 73.4]
]}

Okay, next one:
## Task Need growth, item CN1C(=O)/C(=C/c2ccc(C(=O)Nc3ncc(Cc4ccc(F)cc4)s3)cc2)SC1=S
## Result 65.2

----------
Tested on: BT-549 breast
Assay Summary: NCI-60 one-dose screen, 48 h
Condition Details: 10 µM unless noted
Procedure: Growth inhibition of the BT-549 human tumor cell line is measured as a screen for anti-cancer activity. Cells are grown in 96 well plates and exposed to the test compound for 48 hours. Compounds are tested at a single concentration, which is 10^-5 M for most compounds. The reported endpoint is percent growth (GI% or GIPRCNT), where numbers from 0 - 100% represent growth inhibition, and numbers from -100% - 0 represent cell death. For example, a value of 40 represents 60% growth inhibition. […]
About 83,000 compounds went through this panel and 20% of them were active in at least one assay; those are over-represented in the sample as a whole. The source made the active and inactive calls. How the source made its calls: active means growth percent below 10; inactive means the rest.
Hi! Could you answer with just one of these? true = active, false = inactive

Record excerpt, results attached:
{"columns": ["Compound", "Cat"],
 "data": [
  ["CCOC(=O)C1=C(C)N=C2SC=C(c3ccccc3)N2[C@H]1c1cn[nH]c1-c1ccc(Cl)cc1", "false"],
  ["C=CCN=C(N)SCCCCCCSC(N)=NCC=C", "false"],
  ["N#C/C(=C\\c1ccc(Br)cc1)c1cc2ccccc2[nH]1", "false"],
  ["N#CCC1=NC(c2cccs2)=Nc2ccccc2S1", "false"],
  ["CC1(C)O[C@H]2OC3CCC(=O)CC3(O)[C@H]2O1 (stereo not given in full)", "false"]
]}

## Task # fetch the recorded call for O=C(Cn1cc(CN2C(=O)c3ccccc3S2(=O)=O)nn1)Nc1cccc(Cl)c1 here
## Result false

## Task # fetch the recorded call for O=C(/C=C/C12c3ccccc3C(c3ccccc31)C1C(=O)NC(=O)C12)c1ccccn1 (stereo not given) here
## Result false

## Task # fetch the recorded call for CCn1cc(C2=C(c3cn(C)c4ncccc34)C(=O)NC2=O)c2cccnc21 here
## Result false

## Task # fetch the recorded call for O=C(N/N=C/c1ccc([N+](=O)[O-])cc1)c1ccc2nc(-c3ccc(Cl)cc3)[nH]c2c1 here
## Result false

## Task # fetch the recorded call for Cc1ccc(/C=C/C(=O)c2ccc(NC(=O)CSc3nc4c([nH]3)c(=O)n(C)c(=O)n4C)cc2)c(C)c1 here
## Result false

## Task # fetch the recorded call for O=C(CCCCNC(=O)c1cc(=O)c(O)co1)Nc1ccccc1 here
## Result false

## Task # fetch the recorded call for CCN(CC)CCNC(=O)c1ccc(-c2nc3ccc4[nH]ncc4c3c3c2CCCC3)cc1 here
## Result false

## Task # fetch the recorded call for NC(=O)c1ccc(NC(=O)c2oc3ccccc3c2-c2cnn(-c3ccccc3)c2)cc1 here
## Result false

## Task # fetch the recorded call for N#Cc1nc2c(S(=O)(=O)c3ccccc3)c(N)n(Cc3cccnc3)c2nc1C#N here
## Result false

## Task # fetch the recorded call for O=C1NC(=O)c2c1c1c3ccccc3[nH]c1c1oc3ccc(F)cc3c21 here
## Result false

## Task # fetch the recorded call for O=C(CCl)Nc1ccc2c(Nc3cc(O)ccc3Cl)ncnc2c1 here
## Result true

## Task # fetch the recorded call for O=S(=O)(c1ccccc1)N1CCCN(c2nc(-c3ccccc3)nc3nc(-c4ccccc4)oc23)CC1 here
## Result false

## Task # fetch the recorded call for COC1=CC(c2ccc[nH]2)=N/C1=C\c1[nH]c(C)c(CC(=O)OCc2ccccc2)c1C here
## Result true

## Task # fetch the recorded call for Nc1n[nH]c2ccc([C@@H]3Nc4cc5[nH]ncc5cc4[C@H]4C5CCC(C5)[C@@H]34)cc12 (stereo not given in full) here
## Result false

## Task # fetch the recorded call for CCOC(=O)CSc1nc2sc3c(c2c(=O)n1-c1ccc([N+](=O)[O-])cc1)CCCCC3 here
## Result false

----------
Test system: K-562 leukemia
Assay Summary: NCI-60 one-dose screen, 48 h
Condition Details: 10 µM unless noted
The panel holds about 83,000 compounds, 20% with a hit somewhere; the sample as a whole holds those more often. Calls of active or inactive are those of the source. Rule for the calls: active = growth percent below 10; inactive = the rest.
Hi! Could you answer with just one of these? active, inactive

Record excerpt, results attached:
{"columns": ["Compound", "Cat"],
 "data": [
  ["Oc1c(CN2CCCC2)cc(COCc2ccccc2)c2cccnc12", "inactive"],
  ["COP(=O)(OC)c1nnn(-c2cccc([N+](=O)[O-])c2)c1C", "inactive"],
  ["CC1CN=C(c2cccc(-c3ccc(-c4ccccc4)o3)c2)N1 (stereo not given)", "active"],
  ["C#Cc1cccc(Nc2nc3ccc([N+](=O)[O-])cc3nc2Nc2cccc(C#C)c2)c1", "active"],
  ["COc1ccc2cc(-c3ccc(-c4ccc(C(=N)N)s4)s3)ccc2c1", "active"]
]}

## Task # fetch the recorded call for C=NNc1ccccc1 here
## Result inactive

## Task # fetch the recorded call for O=C(Nc1ccccc1O)c1ccccc1Nc1ccnc(C(F)(F)F)c1 here
## Result inactive

## Task # fetch the recorded call for Cn1cc(-c2ccc3cc(-c4ccc(CC(=O)Nc5cc(C(C)(C)C)on5)cc4)cnc3c2)cn1 here
## Result active

----------
Tested on: MDA-MB-435 melanoma
Assay Summary: NCI-60 one-dose screen, 48 h (100 = growth as untreated, 0 = no growth, -100 = all killed)
Condition Details: 10 µM unless noted
Compounds without any hit were thinned out: in the full panel of roughly 83,000, 20% have a hit.
Reported Endpoint: growth (%)
The reply should be a number in %, with the unit left off.

{"columns": ["Smiles Repr", "Assayed System", "growth (%)"],
 "data": [
  ["CN1CCN(Cc2ccc(NC(=O)c3cncc(C#Cc4cncc5[nH]ncc45)c3)cc2C(F)(F)F)CC1", "MDA-MB-435 melanoma", 2.84]
]}

## Task Need growth, item Cc1cc(N2CCN(C)CC2)nc(NCc2cc(Nc3ccnc4cc(Cl)ccc34)ccc2F)n1
## Result -43.6

## Task Need growth, item Oc1c(Cl)cc(Cl)c2ccc(Cn3cc(-c4cccc(C(F)(F)F)c4)nn3)nc12
## Result 73.9

## Task Need growth, item COc1ccc(C(C)=O)cc1S(N)(=O)=O
## Result 99.3

## Task Need growth, item O=C(Cn1nnc2ccccc21)N/N=C/c1ccccc1F
## Result 102
